# tested-on: human mAChR M1 (Homo sapiens)
# Construct: host or cells: CHO-K1 cells (ATCC), stably transfected using Lipofectamine2000
# Sequence (P11229 whole entry): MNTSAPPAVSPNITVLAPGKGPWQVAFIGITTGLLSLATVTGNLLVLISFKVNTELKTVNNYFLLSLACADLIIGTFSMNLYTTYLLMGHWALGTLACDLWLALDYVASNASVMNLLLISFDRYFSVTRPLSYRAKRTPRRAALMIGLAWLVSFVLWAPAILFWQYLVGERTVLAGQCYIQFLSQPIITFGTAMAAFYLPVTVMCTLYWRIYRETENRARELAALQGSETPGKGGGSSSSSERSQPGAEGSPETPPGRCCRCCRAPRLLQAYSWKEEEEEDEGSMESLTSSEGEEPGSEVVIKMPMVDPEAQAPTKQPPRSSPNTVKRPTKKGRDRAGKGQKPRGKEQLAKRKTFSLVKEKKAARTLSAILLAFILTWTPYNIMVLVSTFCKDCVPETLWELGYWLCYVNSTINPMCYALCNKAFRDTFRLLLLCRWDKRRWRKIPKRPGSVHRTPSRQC
# experiment: mAChR M1 cell-based functional assay (calcium mobilization), PAM activity: increase in the EC20 acetylcholine response
# details: CHO-K1 cells expressing hM1; potentiation of EC20 acetylcholine response
# Protocol: Chinese hamster ovary (CHO-K1) cells stably expressing rat (r)M1 were purchased from the American Type Culture Collection and cultured according to their indicated protocol. […] Calcium flux was measured using the Functional Drug Screening System (FDSS) 6000 (Hamamatsu Corporation, Tokyo, Japan) as an increase in the fluorescent static ratio. […] Agonist activity was analyzed as a concentration-dependent increase in calcium mobilization upon compound addition. […]
observation-type: pEC50
Notebook: values listed as pEC50 are -log10 of the concentration (mol/L).

Prompt line: pEC50 lookup needed for Cc1cncc(-c2cc(F)c(Cn3cc(C(=O)N[C@H]4CCCC[C@@H]4O)c4ncccc4c3=O)c(F)c2)c1 , thanks.
Response line: 6.19

Prompt line: Need pEC50 of Cc1cnn(C)c1-c1ccc(Cn2cc(C(=O)N[C@H]3CCCC[C@@H]3O)c3nccn3c2=O)c(F)c1 , thanks.
Response line: 5.15
